# Experimental system: TBXA2R (Homo sapiens, UniProt P21731)
# Construct: purchased Promega (in-house HiBiT-GPCR construct library, NanoBRET)
# Sequence (P21731 1-343): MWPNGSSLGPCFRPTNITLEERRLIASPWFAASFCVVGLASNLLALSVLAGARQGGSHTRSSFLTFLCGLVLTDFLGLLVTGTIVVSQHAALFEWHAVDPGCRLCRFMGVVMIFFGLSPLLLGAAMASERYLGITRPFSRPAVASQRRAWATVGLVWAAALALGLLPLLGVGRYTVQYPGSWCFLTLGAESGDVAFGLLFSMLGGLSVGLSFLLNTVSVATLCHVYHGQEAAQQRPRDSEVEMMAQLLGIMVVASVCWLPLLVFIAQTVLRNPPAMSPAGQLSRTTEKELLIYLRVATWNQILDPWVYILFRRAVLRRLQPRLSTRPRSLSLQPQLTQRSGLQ
# Test method notes: NanoBRET screen HiBiT-TBXA2R in HEK293
# Assay type: binding
# Cond: TBXA2R; tracer 1μM
Observed property: NanoBRET Fold Response

Consider the worked cases shown below.
Molecule	NanoBRET Fold Response
Cc1cc2c(s1)Nc1ccccc1N=C2N1CCN(CCCNC(=O)CCOCCOCCOCCOCCNC(=O)CCc2ccc3n2[B-](F)(F)[N+]2=C(c4ccc[nH]4)C=CC2=C3)CC1 [Olanzapine-a-2-NB590]	1.02
CC(C)N(CC[C@H](c1ccccc1)c1cc(CCNC(=O)c2ccc(CNC(=O)CCc3ccc4n3[B-](F)(F)[N+]3=C(c5ccc[nH]5)C=CC3=C4)cc2)ccc1O)C(C)C [Tolterodine-BZ-NB590]	1.03
N#CN=C(NCCCOc1cccc(CN2CCCCC2)c1)NCCNC(=O)CCOCCOCCOCCOCCNC(=O)CCc1ccc2n1[B-](F)(F)[N+]1=C(c3ccc[nH]3)C=CC1=C2 [Aminopotentidine-2-NB590]	1.04
O=C(CCc1ccc2n1[B-](F)(F)[N+]1=C(c3ccc[nH]3)C=CC1=C2)NCc1ccc(C(=O)NCCOCCC(=O)N[C@@H]2CC[C@@]3(O)[C@H]4Cc5ccc(O)c6c5[C@@]3(CCN4CC3CC3)[C@H]2O6)cc1 [Naltrexone-3-NB590]	1.13

Short answer please: NanoBRET Fold Response, TBXA2R (Homo sapiens, UniProt P21731), entry COc1ccccc1N1CCN(CCCCN2C(=O)c3ccc(CNC(=O)CCOCCNC(=O)c4ccc(CNC(=O)CCc5ccc6n5[B-](F)(F)[N+]5=C(c7ccc[nH]7)C=CC5=C6)cc4)cc3C2=O)CC1 [NAN-190-3-NB590] 1.15
